# assay.method.text: in vivo
# settings: male, SD, rat, in vivo, iv
observed.property: Vd

INSERT INTO results (molecule, observed_property, readout_value) VALUES
  ('COC(=O)N[C@H](C(=O)N[C@@H](Cc1ccccc1)[C@@H](O)CN(Cc1ccc(-c2ccccn2)cc1)NC(=O)[C@@H](NC(=O)OC)C(C)(C)C)C(C)(C)C [atazanavir, reference compound]', 'Vd', '0.87 L/kg');

Recorded Vd for `COC(=O)N[C@H](C(=O)N[C@@H](Cc1ccc(C#Cc2ccc(N3CC4COCC(C3)N4C3COC3)nc2)cc1)[C@@H](O)CN(Cc1c(F)cc(-c2ccn(C(F)F)n2)cc1F)NC(=O)[C@@H](NC(=O)OC)C(C)(C)C(F)(F)F)C(C)(C)C(F)(F)F` , please?
0.52 L/kg

====

# settings: rat, microsomes
Recorded Rat. Pred. Cl. values for a group of compounds are listed next.

// worked examples, Rat. Pred. Cl. included
INSERT INTO measurements (smiles, readout_value) VALUES
  ('COC(=O)N[C@H](C(=O)N[C@@H](Cc1ccc(C#Cc2ccc(N3CC4CCC(C3)N4C)nc2)cc1)[C@@H](O)CN(Cc1c(F)cc(-c2cnn(C(F)F)c2)cc1F)NC(=O)[C@@H](NC(=O)OC)C(C)(C)C(F)(F)F)C(C)(C)C(F)(F)F', '2.42 L/H/kg'),
  ('COC(=O)N[C@H](C(=O)NN(Cc1c(F)cc(-c2ccn(C(F)F)n2)cc1F)C[C@H](O)[C@H](Cc1ccc(C#Cc2ccc(N3CC4CCC(C3)N4S(C)(=O)=O)nc2)cc1)NC(=O)[C@@H](NC(=O)OC)C(C)(C)C(F)(F)F)C(C)(C)C', '<0.18 L/H/kg'),
  ('COC(=O)N[C@H](C(=O)N[C@@H](Cc1ccc(C#Cc2ccc(N3CC4CCC(C3)N4C3COC3)nc2)cc1)[C@@H](O)CN(Cc1c(F)cc(-c2cnn(C(F)F)c2)cc1F)NC(=O)[C@@H](NC(=O)OC)C(C)(C)CF)C(C)(C)CF', '<0.18 L/H/kg');

Switching to the query record.
Rat. Pred. Cl. for `COC(=O)N[C@H](C(=O)NN(Cc1c(F)cc(-c2ccn(C(F)F)n2)cc1F)C[C@H](O)[C@H](Cc1ccc(C#Cc2ccc(N3CC4CCC(C3)N4C3COC3)nc2)cc1)NC(=O)[C@@H](NC(=O)OC)C(C)(C)C(F)(F)F)C(C)(C)C` ?
<0.18 L/H/kg

====

# settings: human, microsomes
Below: a set of entries, each annotated with reported Human Pred Cl..

Some entries whose results are on file:
INSERT INTO assay_data (smiles, readout_value) VALUES
  ('COC(=O)N[C@H](C(=O)N[C@@H](Cc1ccc(-c2cnc(N3CC4CCC(C3)N4C3COC3)nc2)cc1)[C@@H](O)CN(Cc1c(F)cc(-c2ccn(C3CC3)n2)cc1F)NC(=O)[C@@H](NC(=O)OC)C(C)(C)C(F)(F)F)C(C)(C)C(F)(F)F', '<0.11 L/H/kg'),
  ('COC(=O)N[C@H](C(=O)N[C@@H](Cc1ccc(C#Cc2ccc(N3CC4CCC(C3)N4C3COC3)nc2)cc1)[C@@H](O)CN(Cc1c(F)cc(-c2nnc(C3CC3)o2)cc1F)NC(=O)[C@@H](NC(=O)OC)C(C)(C)C(F)(F)F)C(C)(C)C(F)(F)F', '<0.11 L/H/kg'),
  ('COC(=O)N[C@H](C(=O)N[C@@H](Cc1ccc(C#Cc2ccc(N3CC4COCC(C3)N4C3COC3)nc2)cc1)[C@@H](O)CN(Cc1c(F)cc(-c2ccn(C(F)F)n2)cc1F)NC(=O)[C@@H](NC(=O)OC)C(C)(C)C(F)(F)F)C(C)(C)C(F)(F)F', '<0.11 L/H/kg');

What value of measured Human Pred Cl. is listed for `COC(=O)N[C@H](C(=O)N[C@@H](Cc1ccc(C#Cc2cnc(N3CC4CCC(C3)N4C3COC3)nc2)cc1)[C@@H](O)CN(Cc1c(F)cc(-c2cn(C(F)F)nn2)cc1F)NC(=O)[C@@H](NC(=O)OC)C(C)(C)C(F)(F)F)C(C)(C)C(F)(F)F` ?
<0.11 L/H/kg

Request the reported Human Pred Cl. associated with `COC(=O)N[C@H](C(=O)N[C@@H](Cc1ccc(C#Cc2cnc(N3CC4CCC(C3)N4C3COC3)cn2)cc1)[C@@H](O)CN(Cc1c(F)cc(-c2ccn(C(F)F)n2)cc1F)NC(=O)[C@@H](NC(=O)OC)C(C)(C)C(F)(F)F)C(C)(C)C(F)(F)F`
<0.11 L/H/kg

Could you tell me which Human Pred Cl. is on file for `COC(=O)N[C@H](C(=O)N[C@@H](Cc1ccc(C#Cc2ccc(N3CC4CC(C3)N4C3COC3)nc2)cc1)[C@@H](O)CN(Cc1c(F)cc(-c2ccn(C(F)F)n2)cc1F)NC(=O)[C@@H](NC(=O)OC)C(C)(C)C(F)(F)F)C(C)(C)C(F)(F)F` ?
<0.11 L/H/kg

Requested read-out: Human Pred Cl.. Entry: `COC(=O)N[C@H](C(=O)N[C@@H](Cc1ccc(C#Cc2cnc(N3CC4CCC(C3)N4C3COC3)nc2)cc1)[C@@H](O)CN(Cc1c(F)cc(-c2cnc(N3CC4CCC(C3)N4C3COC3)nc2)cc1F)NC(=O)[C@@H](NC(=O)OC)C(C)(C)C(F)(F)F)C(C)(C)C(F)(F)F`
0.14 L/H/kg

# query: Human Pred Cl. of entry `COC(=O)N[C@H](C(=O)N[C@@H](Cc1ccc(C#Cc2ccc(N3CC4CCC(C3)N4C3COC3)nc2)cc1)[C@@H](O)CN(Cc1c(F)cc(-c2ccn([C@H]3CCOC3)n2)cc1F)NC(=O)[C@@H](NC(=O)OC)C(C)(C)C(F)(F)F)C(C)(C)C(F)(F)F`
0.66 L/H/kg

====

Parameter Human Pred Cl.: see the listing below.
# settings: human, microsomes

INSERT INTO results (smiles, readout_value) VALUES
  ('COC(=O)N[C@H](C(=O)N[C@@H](Cc1ccc(C#Cc2cnc(N3CC4CCC(C3)N4C3COC3)cc2C)cc1)[C@@H](O)CN(Cc1c(F)cc(-c2cnn(C(F)F)c2)cc1F)NC(=O)[C@@H](NC(=O)OC)C(C)(C)C(F)(F)F)C(C)(C)C(F)(F)F', '<0.11 L/H/kg');

I'd like to know its Human Pred Cl.. The molecule in question is `COC(=O)N[C@H](C(=O)NN(Cc1c(F)cc(-c2ccn(C(F)F)n2)cc1F)C[C@H](O)[C@H](Cc1ccc(C#Cc2cnc(N3CC4CCC(C3)N4C3COC3)nc2)cc1)NC(=O)[C@@H](NC(=O)C1CC1)C(C)(C)C(F)(F)F)C(C)(C)C(F)(F)F`
<0.11 L/H/kg

Item `COC(=O)N[C@H](C(=O)N[C@@H](Cc1ccc(-c2ccc(N3CC4CCC(C3)N4C3COC3)nc2)cc1)[C@@H](O)CN(Cc1c(F)cc(-c2ccn(C3CC3)n2)cc1F)NC(=O)[C@@H](NC(=O)OC)C(C)(C)C(F)(F)F)C(C)(C)C(F)(F)F` has what recorded Human Pred Cl.?
0.19 L/H/kg

Name the recorded Human Pred Cl. for `COC(=O)N[C@H](C(=O)NN(Cc1c(F)cc(-c2cnn(C(F)F)c2)cc1F)C[C@H](O)[C@H](Cc1ccc(C#Cc2ccc(N3CC4CCC(C3)N4C3COC3)nc2)cc1)NC(=O)[C@@H](NC(=O)OC)C(C)(C)C(F)(F)F)C(C)(C)C` .
<0.11 L/H/kg

Recorded Human Pred Cl. of `COC(=O)N[C@H](C(=O)NN(Cc1c(F)cc(-c2ccn(C(F)F)n2)cc1F)C[C@H](O)[C@H](Cc1ccc(C#Cc2cnc(N3CC4CCC(C3)N4C3COC3)nc2)cc1)NC(=O)[C@@H](NC(=O)OC)C(C)(C)C(F)(F)F)C(C)(C)C` , please.
<0.11 L/H/kg

Value lookup for Human Pred Cl.; key = `COC(=O)N[C@H](C(=O)N[C@@H](Cc1ccc(C#Cc2ccc(N3CC4COCC(C3)N4C)nc2)cc1)[C@@H](O)CN(Cc1c(F)cc(-c2ccn(C(F)F)n2)cc1F)NC(=O)[C@@H](NC(=O)OC)C(C)(C)C(F)(F)F)C(C)(C)C(F)(F)F`
0.13 L/H/kg

Bench note: what Human Pred Cl. did `COC(=O)N[C@H](C(=O)NN(Cc1c(F)cc(-c2ccn(CC(F)F)n2)cc1F)C[C@H](O)[C@H](Cc1ccc(C#Cc2cnc(N3CC4CCC(C3)N4C3COC3)nc2)cc1)NC(=O)[C@@H](NC(=O)OC)C(C)(C)C(F)(F)F)C(C)(C)C` show?
<0.11 L/H/kg

What Human Pred Cl. value was documented for this molecule, `COC(=O)N[C@H](C(=O)N[C@@H](Cc1ccc(C#Cc2ccc(N3CC4CCC(C3)N4C3COC3)nc2)cc1)[C@@H](O)CN(Cc1c(F)cc(-c2cnn(C(F)F)c2)cc1F)NC(=O)[C@@H](NC(=O)OC)C(C)(C)C(F)(F)F)C(C)(C)C(F)(F)F` ?
<0.11 L/H/kg
